Test system: ATP;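 also: ATP exposure 15 min at 22 °C before imaging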
Experiment: switch fluorescence ratio, 500 uM ATP over buffer (Cy3 cluster intensity, sum of 5 cycles each) (fold (ratio)); higher = stronger signal-on switching upon ATP binding; sequences stand for … in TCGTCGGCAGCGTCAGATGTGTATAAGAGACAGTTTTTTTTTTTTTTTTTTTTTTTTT…TC
Conditions: aptamer strand: ATP DNA aptamer (quencher-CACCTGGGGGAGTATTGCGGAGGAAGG + anchor), 100 nM annealed; ATP concentration: 500 uM
Parameter: switch fluorescence ratio. Scope: all listed entries.

Would you please look over these solved cases?
[[record]]
chain = "CTGGGGGAAT"
readout_type = "switch fluorescence ratio"
recorded_result = 1.01

[[record]]
chain = "TAAGTTAAGC"
readout_type = "switch fluorescence ratio"
recorded_result = 1

[[record]]
chain = "GGCATTTTAT"
readout_type = "switch fluorescence ratio"
recorded_result = 1.01


Query: Provide switch fluorescence ratio, system ATP, entry TGAGGAGGTT;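 also: ATP exposure 15 min at 22 °C before imaging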
Reply: 0.981

Query: Name the recorded switch fluorescence ratio of ATTTGTCCAA , assay system ATP.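 Also: ATP exposure 15 min at 22 °C before imaging.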
Reply: 0.993

Query: Param request: switch fluorescence ratio | system ATP | item TTTGGTTTGG;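 also: ATP exposure 15 min at 22 °C before imaging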
Reply: 1.01

Query: GET switch fluorescence ratio | system: ATP | item: GTGGGTAGTG;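 also: ATP exposure 15 min at 22 °C before imaging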
Reply: 0.996

Query: Look up and report measured switch fluorescence ratio (ATP) for the following sequence: TGGTAGGGTG
Reply: 1.01

Query: Find switch fluorescence ratio for GCTGATGTTC on ATP and write it down.
Reply: 1.01

###

System: ATP;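 also: ATP exposure 15 min at 22 °C before imaging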
Test: switch fluorescence ratio, 500 uM ATP over buffer (Cy3 cluster intensity, sum of 5 cycles each) (fold (ratio)); higher = stronger signal-on switching upon ATP binding; sequences stand for … in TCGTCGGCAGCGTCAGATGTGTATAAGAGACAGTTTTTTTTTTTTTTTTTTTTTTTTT…TC
Conditions: aptamer strand: ATP DNA aptamer (quencher-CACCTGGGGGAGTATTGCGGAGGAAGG + anchor), 100 nM annealed; ATP concentration: 500 uM
Parameter switch fluorescence ratio: see the listing below.
Write no unit; give the number alone.

[[record]]
chain = "GGGGGTGAAA"
target_under_test = "ATP"
recorded_result = 0.987

[[record]]
chain = "TGGGCCGGTG"
target_under_test = "ATP"
recorded_result = 1.04

[[record]]
chain = "GAGCGGGATG"
target_under_test = "ATP"
recorded_result = 0.986


Query: Report switch fluorescence ratio on ATP for this entry: GATCAAGGGA
Reply: 1.03

Query: Provide the reported switch fluorescence ratio (system: ATP) for GGGGGTGTAG;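 also: ATP exposure 15 min at 22 °C before imaging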
Reply: 1.01

Query: Enter switch fluorescence ratio (test system ATP) for TAGCTACTTC;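 also: ATP exposure 15 min at 22 °C before imaging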
Reply: 1.73

###

Test system: ATP;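 also: ATP exposure 15 min at 22 °C before imaging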
Experiment: switch fluorescence ratio, 500 uM ATP over buffer (Cy3 cluster intensity, sum of 5 cycles each) (fold (ratio)); higher = stronger signal-on switching upon ATP binding; sequences stand for … in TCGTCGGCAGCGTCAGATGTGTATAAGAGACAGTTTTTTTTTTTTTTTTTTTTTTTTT…TC
Settings: aptamer strand: ATP DNA aptamer (quencher-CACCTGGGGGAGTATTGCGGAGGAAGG + anchor), 100 nM annealed; ATP concentration: 500 uM
Label Y when switch fluorescence ratio >= 1; otherwise N.

Some solved cases for reference:
[[record]]
chain = "AGGCAGGCCA"
assigned_label = "Y"

[[record]]
chain = "ATCGTATTAC"
assigned_label = "Y"

[[record]]
chain = "GGGGTGCCTT"
assigned_label = "Y"

[[record]]
chain = "TCCTCGAGTA"
assigned_label = "Y"

[[record]]
chain = "ATTTCGCCCG"
assigned_label = "Y"

[[record]]
chain = "TAGATATGCG"
assigned_label = "Y"

[[record]]
chain = "TTTGATCGGA"
assigned_label = "N"

[[record]]
chain = "CACGATATTC"
assigned_label = "Y"


Query: State whether the measured switch fluorescence ratio reaches 1, counting equality as reaching it, for AGACGGATGC
Reply: Y

Query: Does the sequence TTTGGTGTCT have recorded switch fluorescence ratio that is 1 or more?
Reply: N

Query: Determine whether this sequence has switch fluorescence ratio no lower than 1: TTTAACGTCG
Reply: Y

Query: Does the reported switch fluorescence ratio for GGATGGGAGG fall at or above the 1 mark?
Reply: Y

Query: Tell me whether switch fluorescence ratio is at least 1 here: ACTTGAGGGG
Reply: Y

The reported numbers originate from the supplement of paper PMC10126150.
